# Test system: Chlamydia trachomatis
# Procedure summary: Antichlamydial activity against Chlamydia trachomatis L2 serovar VR-902B infected in human HeLa cells assessed as growth inhibition at 50 uM after 24 to 48 hrs by microscopic analysis
# Format: functional
Mark Not met for inhibition at 50 µM values under 20%, and Met for everything at or above.

- Structure as smiles: "CCN(CC)c1ccc(/C=N/NC(=O)c2ccc(S(=O)(=O)Nc3cc(C)on3)cc2)c(O)c1"
  Group label: "Met"
- Structure as smiles: "Cc1cc(NS(=O)(=O)c2ccc(NC(=S)NC3CCCCC3)cc2)no1"
  Group label: "Met"
- Structure as smiles: "Cc1cc(NS(=O)(=O)c2ccc(C(=O)N/N=C/c3cc(Br)cc(Br)c3O)cc2)no1"
  Group label: "Met"
- Structure as smiles: "Cc1cc(NS(=O)(=O)c2ccc(C(=O)N/N=C/c3cc(Cl)cc(Cl)c3O)cc2)no1"
  Group label: "Met"
- Structure as smiles: "Cc1cc(NS(=O)(=O)c2ccc(NC(=O)/C=C/c3ccc(C(=O)N/N=C/c4cc(Br)ccc4O)cc3)cc2)no1"
  Group label: "Met"
- Structure as smiles: "Cc1cc(NS(=O)(=O)c2ccc(NC(=O)/C=C/c3ccc(C(=O)N/N=C/c4cccc(F)c4O)cc3)cc2)no1"
  Group label: "Met"
- Structure as smiles: "Cc1cc(NS(=O)(=O)c2ccc(NC(=O)Nc3ccc(O)cc3)cc2)no1"
  Group label: "Not met"
- Structure as smiles: "CCN(CC)c1ccc(/C=N/NC(=O)c2ccc(/C=C/C(=O)Nc3ccc(S(=O)(=O)Nc4cc(C)on4)cc3)cc2)c(O)c1"
  Group label: "Met"
- Structure as smiles: "Cc1cc(NS(=O)(=O)c2ccc(NC(S)=NCc3ccccc3)cc2)no1"
  Group label: "Met"
- Structure as smiles: "Cc1cc(NS(=O)(=O)c2ccc(C(=O)N/N=C/c3ccc(O)cc3O)cc2)no1"
  Group label: "Met"
- Structure as smiles: "Cc1cc(NS(=O)(=O)c2ccc(NC(=O)NCc3ccccc3)cc2)no1"
  Group label: "Not met"
- Structure as smiles: "Cc1cc(NS(=O)(=O)c2ccc(NC(=O)/C=C/c3ccc(C(=O)N/N=C/c4cc(Cl)cc(Cl)c4O)cc3)cc2)no1"
  Group label: "Not met"
- Structure as smiles: "Cc1cc(NS(=O)(=O)c2ccc(NC(=O)NC3CCCCC3)cc2)no1"
  Group label: "Not met"
